Would you mind telling me the reported EC50 of each entry?
- Measured on: T1, BMPRIb Fc fusion (R&D Systems) (UniProt O00238 14-126)
- T1 construct: Bought receptor/Fc fusion; also called ALK-6; not shown: Fc part of the bought fusion
- T1 sequence (looked up): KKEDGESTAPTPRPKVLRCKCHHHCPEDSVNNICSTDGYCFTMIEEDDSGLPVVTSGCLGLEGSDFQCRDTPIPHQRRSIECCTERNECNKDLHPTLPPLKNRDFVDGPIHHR
- Experiment summary: AlphaScreen competition against biotinylated Y65N/S120D BMP-7
State the answer as a number, implicitly in µg/mL.

Reported EC50, binder BMP-7 variant 526 (K39S/S120D/R134E) (ligand, Expressed from the full-length Image clone and processed to the mature dimer; Purified from conditioned media on SP-sepharose; also called v526) STGGKQRSQNRSKTPKNQEALRMASVAENSSSDQRQACSKHELYVSFRDLGWQDWIIAPEGYAAYYCEGECAFPLNSYMNATNHAIVQTLVHFINPETVPKPCCAPTQLNAISVLYFDDDSNVILKKYRNMVVEACGCH : ____
0.0363

Reported EC50, binder BMP-7 variant 504 (Y65N/S120D) (ligand, Expressed from the full-length Image clone and processed to the mature dimer; Purified from conditioned media on SP-sepharose; also called v504) STGGKQRSQNRSKTPKNQEALRMASVAENSSSDQRQACKKHELYVSFRDLGWQDWIIAPEGYAANYCEGECAFPLNSYMNATNHAIVQTLVHFINPETVPKPCCAPTQLNAISVLYFDDDSNVILKKYRNMVVRACGCH : ____
0.0185

Reported EC50, binder BMP-7 variant 565 (Y65N/F93T/R129D) (ligand, Expressed from the full-length Image clone and processed to the mature dimer; Purified from conditioned media on SP-sepharose; also called v565) STGGKQRSQNRSKTPKNQEALRMASVAENSSSDQRQACKKHELYVSFRDLGWQDWIIAPEGYAANYCEGECAFPLNSYMNATNHAIVQTLVHTINPETVPKPCCAPTQLNAISVLYFDDSSNVILKKYDNMVVRACGCH : ____
0.0224

Reported EC50, binder wild type human BMP-7 (R&D Systems) (ligand, Bought recombinant protein; It describes BMPs as dimers; also called wt; recombinant human BMP-7) STGGKQRSQNRSKTPKNQEALRMASVAENSSSDQRQACKKHELYVSFRDLGWQDWIIAPEGYAAYYCEGECAFPLNSYMNATNHAIVQTLVHFINPETVPKPCCAPTQLNAISVLYFDDSSNVILKKYRNMVVRACGCH : ____
0.0499
